For each of the binders below, state its pEC50.
- measured-on: T1, RMF/HLA complex on antigen-positive cancer cells (SET2, BV173) (human)
- T1 construct: whole, on cells; Naturally presented complex on SET2 (DSMZ ACC 608) and BV173 (DSMZ ACC 20) cells; also called RMF/HLA complex on cells; WT1/HLA-expressing cells
- protocol: flow cytometry on SET2 cells, IgG; '++' = EC50 below 10 nM, '+' = EC50 of more than 10 nM
- Description: SET2 cells (DSMZ No. ACC 608) and BV173 cells (DSMZ No. ACC 20) were used as antigen-positive cancer cells (see Dao et al.; 2013). Binding was measured by flow cytometry utilizing a PE-conjugated goat anti-human IgG secondary antibody, and EC50 values were determined. Example 4 was repeated with the antibodies of the present disclosure, i.e. binding to RNF/HLA-positive SET2 cells (DSMZ No. ACC 608) and BV173 cells (DSMZ No. ACC 20) was tested by flow cytometry. EC50 values were determined.
pEC50: −log10 of the molar value.

Look over these answered cases.
Daniel (IgG1) (antibody, V domains shown) VH: QVQLVQSGAEVKKPGASVKVSCKASGYTFTSYYMHWVRQAPGQGLEWMGIINPSGGSTSYAQKFQGRVTMTRDTSTSTVYMELSSLRSEDTAVYYCAREGYTPGGSYTFDIWGQGTLVTVSS VL: QSVLTQPPSVSAAPGQKVTISCSGSSSNIGNNYVSWYQQLPGTAPKLLIYDNNKRPSGIPDRFSGSKSGTSATLGITGLQTEDEADYYCGSWDGFVSSYSVFGGGTKLTVLG = > 8.00
Aali (IgG1) (antibody, V domains shown) VH: QVQLVESGGGLVKPGGSLRLSCAASGFTFSDHYISWIRQAPGKGLEWVSYISSSGSTTYYAESVKGRFTISRDNAKNSLYLQMNSLRAEDTAVYYCARTYAYRYDFDLWGQGTLVTVSS VL: QSVLTQPPSVSGAPGQRVTISCTGSSSNIGAGYDVHWYQQLPGTAPKLLIYGNSNRPSGVPDRFSGSKSGTSASLAITGLQAEDEADYYCQTWVHSYSTPVFGGGTKLTVLG = > 8.00
Elfu (IgG1) (antibody, V domains shown) VH: EVQLVQSGAEVKKPGESLKISCKGSGYSFTSYWISWVRQMPGKGLEWMGIIYPGTSYTRYSPSFQGQVTISADKSISTAYLQWSSLKASDTAMYYCARGYHLPYFDYWGQGTLVTVSS VL: QSVLTQPPSVSGAPGQRVTISCTGSSSNIGAGYDVHWYQQLPGTAPKLLIYGNSNRPSGVPDRFSGSKSGTSASLAITGLQAEDEADYYCQAYASPTRVVFGGGTKLTVLG = < 8.00

Here is another binder to look at.
Input line: What pEC50 value was documented for this binder, Bibi (IgG1) (antibody, V domains shown) VH: EVQLVESGGGLVKPGGSLRLSCAASGFTFSSYSMNWVRQAPGKGLEWVSSISSSSSYIYYADSVKGRFTISRDNAKNSLYLQMNSLRAEDTAVYYCARTESVWHLGFDIWGQGTLVTVSS VL: DIQMTQSPSSVSASVGDRVTITCRASQGISSWLAWYQQKPGKAPKLLIYAASSLQSGVPSRFSGSGSGTDFTLTISSLQPEDFATYYCQQNHKYPITFGQGTKVEIKR ?
Output line: < 8.00
